The measurements presented in this section are drawn from patent US20200270309A1.

- ASSAY SUMMARY: Half-lives and pharmacokinetic parameters of polypeptides vs HM-1
- CONDITION SUMMARY: in vivo
Peptide text beside a SMILES is read from it. * marks the point of attachment. X16 = O=C1C=CC(=O)N1CCOCCOCCCCCCC(=O)*; X56 = O=C1C=CC(=O)N1c1ccc(CCC(=O)*)cc1; X75 = O=C1C=CC(=O)N1c1cccc(CC(=O)*)c1
Each entry below lists one item and its recorded AUC(0-inf) value.
Form entry: value (ng·h/mL) — number only.

Example entries begin here.
C[C@H](NC(=O)CNC(=O)[C@H](CCCNC(=N)N)NC(=O)CCCCCCOCCOCCN1C(=O)C=CC1=O)C(=O)N[C@@H](CC(=O)O)C(=O)N[C@@H](CCCNC(=N)N)C(=O)N[C@@H](C)C(=O)NCC(=O)NCC(=O)NCC(=O)NCC(=O)N[C@@H](CCCNC(=N)N)C(=O)NCC(=O)N[C@@H](CC(=O)O)C(=O)O [X61] (X16-RGADRAGGGGRGD-OH); 25600
C[C@H](NC(=O)CNC(=O)[C@H](CCCNC(=N)N)NC(=O)CCc1ccc(N2C(=O)C=CC2=O)cc1)C(=O)N[C@@H](CC(=O)O)C(=O)N[C@@H](CCCNC(=N)N)C(=O)N[C@@H](C)C(=O)NCC(=O)NCC(=O)NCC(=O)NCC(=O)N[C@@H](CCCNC(=N)N)C(=O)NCC(=O)N[C@@H](CC(=O)O)C(=O)O [X38] (X56-RGADRAGGGGRGD-OH); 31400

Would you kindly look at the next entry?
// lookup AUC(0-inf) for C[C@H](NC(=O)CNC(=O)[C@H](CCCNC(=N)N)NC(=O)Cc1cccc(N2C(=O)C=CC2=O)c1)C(=O)N[C@@H](CC(=O)O)C(=O)N[C@@H](CCCNC(=N)N)C(=O)N[C@@H](C)C(=O)NCC(=O)NCC(=O)NCC(=O)NCC(=O)N[C@@H](CCCNC(=N)N)C(=O)NCC(=O)N[C@@H](CC(=O)O)C(=O)O [X25] (X75-RGADRAGGGGRGD-OH)
24600
